Give protein stability index for every item shown.
B1: KLHL13 (parent)
chain: GVSKVGLRKIIDFIYTAKLSLNMD

Variants of: B1
assay.comment: protein stability index of a GFP-peptide fusion (GPS, HEK-293T) (PSI 1-6); higher = more stable;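 note: lentivirally expressed fusions sorted by FACS into six bins by GFP to DsRed ratio, PSI derived from sequencing read proportions per bin multiplied by bin number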
reported.conditions: c terminus: a fixed tail appended
Numbers only.

>  <variant.annotation>
L19C

>  <protein stability index>
2.34

$$$$

For each of the variants below, state protein stability index.
1. F13H
2. I14H
3. N22E
4. L19V
5. V5Q

[A]
1. 2.62
2. 1.34
3. 2.73
4. 3.11
5. 3.5
